Tested on: pseudotyped VSV G particles (VSVpp)
test-details: microbe, parasite or virus in culture
Format: cell-based
condition-details: Vesicular stomatitis virus, 72 h, read-out: VSVpp (EC50, μM)
parameter-measured: EC50 (µM)
Lab book: enter the figure in µM, no units written.

// fetch pseudotyped VSV G particles (VSVpp) EC50 for CS(=O)(=O)c1ccc(Oc2c(Cl)cc(Nc3n[nH]c(N)n3)cc2C(F)(F)F)cc1
10

// fetch pseudotyped VSV G particles (VSVpp) EC50 for N#Cc1ccc(S(=O)(=O)c2c(Cl)cc(Nc3n[nH]c(N)n3)cc2Cl)cc1
10

// fetch pseudotyped VSV G particles (VSVpp) EC50 for N#Cc1ccc([S+]([O-])c2c(Cl)cc(Nc3n[nH]c(N)n3)cc2Cl)cc1 (stereo not drawn)
10
